Biological target: c-Met kinase (His-tagged recombinant human Met (amino acids 974-end)) (Homo sapiens, UniProt P08581)
Construct: His-tagged recombinant human Met (amino acids 974-end); His
Sequence (P08581 956-1390): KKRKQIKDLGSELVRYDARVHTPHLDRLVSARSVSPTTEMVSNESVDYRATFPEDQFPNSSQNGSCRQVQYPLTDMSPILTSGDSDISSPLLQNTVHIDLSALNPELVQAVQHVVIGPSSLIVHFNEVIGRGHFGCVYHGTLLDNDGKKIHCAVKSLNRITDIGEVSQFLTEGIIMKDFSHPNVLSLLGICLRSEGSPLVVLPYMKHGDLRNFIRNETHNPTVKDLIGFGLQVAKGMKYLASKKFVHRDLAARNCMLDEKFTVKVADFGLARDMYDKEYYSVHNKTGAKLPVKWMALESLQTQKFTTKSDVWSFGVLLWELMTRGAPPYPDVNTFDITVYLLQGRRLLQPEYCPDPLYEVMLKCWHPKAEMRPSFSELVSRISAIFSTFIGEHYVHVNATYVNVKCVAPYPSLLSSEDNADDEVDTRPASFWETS
Assay: c-Met Enzyme Activity Inhibition Assay (ELISA)
Assay type: biochemical
Conditions: 50 pM c-Met, 5 μM ATP, room temperature 20 min; read-out: IC50 for inhibiting c-Met kinase (converted)
Protocol: c-Met Enzyme Activity Inhibition Assay The assay for the determination of c-Met kinase activity is based on an enzyme linked immunosorbant assay (ELISA). […] The reaction mixture was removed by washing and the phosphorylated polymer substrate was detected with 0.2 μg/mL phosphotyrosine specific monoclonal antibody (PY20) conjugated to horseradish peroxidase (HRP). […]
Consider the reported IC50 of an entry and match it to a band in small value = under 90 nM, mid value = from 90 nM up to 400 nM, large value = 400 nM and over

COMPOUND | CATEGORY
COc1cc2c(Oc3ccc(NC(=O)c4nn(-c5ccc(F)cc5)c(=O)n(C)c4=O)cc3F)ccnc2cc1OCCCN1CCCC1 [Example 6] | small value
COc1cc2c(Oc3ccc(NC(=O)c4nn(-c5ccc(F)c(F)c5)c(=O)n(C)c4=O)cc3F)ccnc2cc1OCCCN1CCCC1 [Example 16] | large value
COc1cc2c(Oc3ccc(NC(=O)c4nn(-c5ccc(F)c(F)c5)c(=O)n(C)c4=O)cc3F)ccnc2cc1OCCCN1CCN(C)CC1 [Example 20] | mid value
COc1cc2c(Oc3ccc(NC(=O)c4nn(-c5ccc(F)cc5)c(=O)n(C)c4=O)cc3F)ccnc2cc1OCCCN1CCOCC1 [Example 8] | large value
COc1cc2c(Oc3ccc(NC(=O)c4nn(-c5ccc(F)cc5)c(=O)n(C)c4=O)cc3F)ccnc2cc1OCCCN1CCC(C)CC1 [Example 9] | mid value
COc1cc2c(Oc3ccc(NC(=O)c4nn(-c5ccc(F)c(F)c5)c(=O)n(C)c4=O)cc3F)ccnc2cc1OCCCN1CCC(C)CC1 [Example 19] | large value
COc1cc2c(Oc3ccc(NC(=O)c4nn(-c5ccc(Cl)cc5)c(=O)n(C)c4=O)cc3F)ccnc2cc1OCCCN1CCOCC1 [Example 27] | small value
COc1cc2c(Oc3ccc(NC(=O)c4nn(-c5ccc(F)c(F)c5)c(=O)n(C)c4=O)cc3F)ccnc2cc1OCCCN1CCCCC1 [Example 17] | large value
COc1cc2c(Oc3ccc(NC(=O)c4nn(-c5ccccc5)c(=O)n(C)c4=O)cc3F)ccnc2cc1OCCCN1CCCC1 [Example 1] | small value
COc1cc2c(Oc3ccc(NC(=O)c4nn(-c5ccc(F)cc5)c(=O)n(C)c4=O)cc3F)ccnc2cc1OCCCN1CCN(C)CC1 [Example 10] | mid value
